Sourced from ChEMBL document CHEMBL1154874

Tested on: U-251
Assay: Cytotoxicity against human U251 cells after 48 hrs by SRB assay
Type: functional, cell-based
Settings: U-251, 48 h
We label by threshold. Values of IC50 strictly beneath 50 µM are 1.0. Values of 50 µM and up are 0.0.

- smiles.notation: "O=C(c1ccc2nc(NC(=O)C(F)(F)F)cn2c1)c1ncc[nH]1"
  subject.of.test: "U-251"
  discrete.label: 1.0
- smiles.notation: "Cn1cnc2c(NCc3ccccc3)nc(NCCO)nc21"
  subject.of.test: "U-251"
  discrete.label: 0.0
- smiles.notation: "Cn1cc(C(=O)c2ccc3nc(NC(=O)C(F)(F)F)cn3c2)c2ccccc21"
  subject.of.test: "U-251"
  discrete.label: 1.0
- smiles.notation: "Cc1ccc(F)c(C(=O)c2ccc3nc(NC(=O)C(F)(F)F)cn3c2)c1"
  subject.of.test: "U-251"
  discrete.label: 0.0
- smiles.notation: "O=C(c1ccc2nc(NC(=O)C(F)(F)F)cn2c1)c1ccc(C(F)(F)F)cc1F"
  subject.of.test: "U-251"
  discrete.label: 0.0

Alright, here's another compound for you.
Input: Given O=C(c1ccc(C(F)(F)F)c(F)c1)c1ccc2nc(NC(=O)C(F)(F)F)cn2c1 , is recorded IC50 strictly lower than 50 µM?
Output: 0.0

###

Tested on: MCF7
Test: Cytotoxicity against human MCF7 cells assessed as cell growth inhibition at 50 uM after 48 hrs by SRB assay
Type: functional
Conditions: MCF7, 48 h, read-out: GI
assay.endpoint: inhibition of growth at 50 µM (%)
Lab book: enter the figure in %, no units written.

Worked cases, answers included:
- smiles.notation: "Cn1ccnc1C(=O)c1ccc2nc(NC(=O)C(F)(F)F)cn2c1"
  inhibition of growth at 50 µM (%): 30.8
- smiles.notation: "O=C(c1ccc2nc(NC(=O)C(F)(F)F)cn2c1)c1ccc(C(F)(F)F)cc1F"
  inhibition of growth at 50 µM (%): 97.2

Input: # lookup: inhibition of growth at 50 µM of Cc1ccc(F)c(C(=O)c2ccc3nc(NC(=O)C(F)(F)F)cn3c2)c1
Output: 66.3

Input: GET /values?readout=inhibition of growth at 50 µM&item= O=C(c1ccc(C(F)(F)F)c(F)c1)c1ccc2nc(NC(=O)C(F)(F)F)cn2c1
Output: 56.5

###

Quick list: Activity per entry.
System: SK-LU-1
Assay: Cell cycle arrest in human SK-LU-1 cells assessed as accumulation at G0/G1 phase at 2 times IC50 concentration after 24 hrs using propidium iodide staining by flow cytometry relative to control
Assay type: functional
Field format: number, assumed %, no unit text.

- smiles.notation: "Cc1ccc(C(=O)c2ccc3nc(NC(=O)C(F)(F)F)cn3c2)cc1F"
  subject.of.test: "SK-LU-1"
  endpoint.unit: "%"
  Activity: 22.6
- smiles.notation: "Cc1ccc(F)c(C(=O)c2ccc3nc(NC(=O)C(F)(F)F)cn3c2)c1"
  subject.of.test: "SK-LU-1"
  endpoint.unit: "%"
  Activity: 10.4
- smiles.notation: "Cn1cc(C(=O)c2ccc3nc(NC(=O)C(F)(F)F)cn3c2)c2ccccc21"
  subject.of.test: "SK-LU-1"
  endpoint.unit: "%"
  Activity: 32.9

Input: What measured Activity goes with Cn1cnc2c(NCc3ccccc3)nc(NCCO)nc21 ?
Output: 44.2
